# test.description: chemical genetic growth profiling, strain panel (AID 1159580);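 note: tested at 20 µM; growth read once vehicle control cultures reached saturation at 30 °C; 1 = growth at the plate median or of vehicle wells; lower values mean less growth of the strain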
# experimental.setup: S. cerevisiae deletion strains, growth OD, locus YGR229C, strain SMI1, hits give low values
Out of some 5,500 compounds screened, about 2,000 (36%) were called active. About 18% were inconclusive and are not listed. Some of the results follow.
Quick reference for normalized growth among some molecules
reported.endpoint: normalized growth

{"molecule": "NC(=S)N/N=C\\c1cc(F)cc(F)c1", "readout.number": 0.944}
{"molecule": "COc1ccccc1OCCNCC(O)COc1cccc2[nH]c3ccccc3c12 (stereo unspecified)", "readout.number": 0.957}
{"molecule": "C=CC(C1=CC(=O)C=CC1=O)c1ccccc1 (stereo unspecified)", "readout.number": 0.722}
{"molecule": "CCCC(C)C1(CC)C(=O)N=C(S)NC1=O (stereo unspecified)", "readout.number": 1.01}
{"molecule": "C=CC(C1=CC(=O)C(OC)=CC1=O)c1ccc(OC)cc1 (stereo unspecified)", "readout.number": 0.812}
{"molecule": "N[C@@H](Cc1ccc(O)c(O)c1)C(=O)O", "readout.number": 0.928}
{"molecule": "C=CCC1(C(C)CCC)C(=O)N=C(S)NC1=O (stereo unspecified)", "readout.number": 1.02}
{"molecule": "NCC(CP(=O)(O)O)c1ccc(Cl)cc1 (stereo unspecified)", "readout.number": 0.963}
{"molecule": "CCCC1O[C@@H]2CC3C4CCC5=CC(=O)C=CC5(C)C4[C@@H](O)CC3(C)[C@]2(C(=O)CO)O1 (stereo partly specified)", "readout.number": 0.992}
{"molecule": "O=C(CCCCCCCCCCCCC1CCCC1)Nc1ccc(S(=O)(=O)c2ccc(NC(=O)CCCCCCCCCCCCC3CCCC3)cc2)cc1", "readout.number": 1.03}
{"molecule": "CCCC(C)C1(CC)C(=O)NC(=O)NC1=O (stereo unspecified)", "readout.number": 1.02}

----------
# test.description: chemical genetic growth profiling, strain panel (AID 1159580);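 note: tested at 20 µM; growth read once vehicle control cultures reached saturation at 30 °C; 1 = growth at the plate median or of vehicle wells; lower values mean less growth of the strain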
# experimental.setup: S. cerevisiae deletion strains, growth OD, locus YIL125W, strain kgd1
In all, about 5,500 compounds went through this assay and about 2,000 (36%) were called active. About 18% were inconclusive and are not listed. Rule as the data show it: active = normalized growth mostly below about 0.91 (no sharp cut-off); inconclusive = no clear call, values can overlap the other calls; inactive = mostly above about 0.92. The list shows a part of the results.
Labels: active, inactive

{"molecule": "COc1ccc(C(Cl)=C(c2ccc(OC)cc2)c2ccc(OC)cc2)cc1", "group": "inactive"}
{"molecule": "CCN(CC)CCOc1ccc2c(c1)C(=O)c1cc(OCCN(CC)CC)ccc1-2", "group": "inactive"}
{"molecule": "OC[C@@H](O)[C@@H](O[C@@H]1O[C@H](CO)[C@@H](O)[C@H](O)[C@H]1O)[C@H](O)[C@@H](O)CO", "group": "inactive"}
{"molecule": "O=C(CCCCCCCCCCCCC1CCCC1)Nc1ccc(S(=O)(=O)c2ccc(NC(=O)CCCCCCCCCCCCC3CCCC3)cc2)cc1", "group": "inactive"}
{"molecule": "Nc1ncn([C@@H]2O[C@H](CO)[C@@H](O)[C@H]2O)c(=O)n1", "group": "inactive"}
{"molecule": "C=C(C)[C@H]1CC=C(C(=O)O)CC1", "group": "active"}
{"molecule": "COc1cc(C(=O)NCc2ccc(OCCN(C)C)cc2)cc(OC)c1OC", "group": "inactive"}
{"molecule": "CCC(Cc1c(I)cc(I)c(N)c1I)C(=O)O (configuration not stated)", "group": "inactive"}
{"molecule": "CC(Cc1ccc(O)c(O)c1)C(C)Cc1ccc(O)c(O)c1 (configuration not stated)", "group": "inactive"}
{"molecule": "Nc1ccc(S(=O)(=O)Nc2ccccn2)cc1", "group": "inactive"}
{"molecule": "CNc1ccccc1C(=O)O", "group": "inactive"}
{"molecule": "O=c1[nH]c(=O)n(C2C[C@@H](O)[C@@H](CO)O2)cc1F (some centres not stated)", "group": "inactive"}
{"molecule": "COC(=O)Oc1ccccc1C(=O)O", "group": "inactive"}
{"molecule": "CC(=O)OCC1(C)CCC2(C)CCC3(C)C4=CCc5c(cc(OC(C)=O)c(OC(C)=O)c5C)C4(C)CCC3(C)C2C1 (configuration not stated)", "group": "inactive"}
{"molecule": "CC/C(=C(\\c1ccccc1)c1ccc(OCCN(C)C)cc1)c1ccccc1", "group": "active"}
{"molecule": "COC(=O)[C@]1(C)CC[C@]2(C)CC[C@]3(C)C4=CCc5c(cc(O)c(O)c5C)[C@]4(C)CC[C@@]3(C)C2C1 (some centres not stated)", "group": "inactive"}
{"molecule": "CCCC(C)C1(CC)C(=O)NC(=O)NC1=O (configuration not stated)", "group": "inactive"}
{"molecule": "COc1ccccc1OCCNCC(O)COc1cccc2[nH]c3ccccc3c12 (configuration not stated)", "group": "inactive"}
{"molecule": "Cc1c(O)c(O)cc2c1CC=C1[C@@]2(C)CC[C@@]2(C)C3C[C@](C)(C(=O)O)CC[C@]3(C)CC[C@]12C (some centres not stated)", "group": "inactive"}
{"molecule": "N[C@@H](Cc1ccc(O)c(O)c1)C(=O)O", "group": "inactive"}
{"molecule": "Nc1ncnc2c1ncn2C1C[C@H](O)[C@@H](CO)O1 (some centres not stated)", "group": "inactive"}
{"molecule": "O=C(O)c1cccnc1Nc1cccc(C(F)(F)F)c1", "group": "active"}
